# measurement_protocol: A CellTox Green Cytotoxicity Assay to monitor cytotoxicity in HepG2 cells - 24 hour (AID 1224878); also: nearly all actives have a fitted effect of over 45% in size
# measurement_parameters: CellTox Green fluorescence; series mostly up to 76.8 µM
Inconclusive results are not listed. The source made the active and inactive calls. Calls follow the shape of the dose curve; as a rule, active = well fitted activation curve with a large enough effect in the repeat runs; inconclusive = weak or mixed curves; inactive = flat fitted curve, though single readings scatter.
Log the outcome using a class from active, inactive

compound	answer_label
N#Cc1cc([N+](=O)[O-])ccc1N	inactive
CC(c1ccccc1)(c1ccc(O)cc1)c1ccc(O)cc1	active
OC(Cc1ccccc1Cl)(Cn1[nH]cnc1=S)C1(Cl)CC1 (stereo not given)	inactive
O=C(Nc1ccccc1-c1ccc(Cl)cc1)c1cccnc1Cl	active
CO/C=C(/C(=O)OC)c1ccccc1Oc1cc(Oc2ccccc2C#N)ncn1	inactive
COc1cc(OC)c(OC)cc1C=O	inactive
Cc1ccc(N(SC(F)(Cl)Cl)S(=O)(=O)N(C)C)cc1	active
O=C(c1ccccc1)C(Cl)Cl	inactive

Q. Assay outcome for "COc1ccc(C(c2ccc(OC)cc2)C(Cl)(Cl)Cl)cc1" : what was it?
A. inactive

Q. Assay outcome for "Oc1c(I)cc(I)cc1I" : what was it?
A. inactive

---

# subject_of_test: Acetylcholinesterase (Homo sapiens) (UniProt P22303)
# Sequence (P22303 whole entry, looked up): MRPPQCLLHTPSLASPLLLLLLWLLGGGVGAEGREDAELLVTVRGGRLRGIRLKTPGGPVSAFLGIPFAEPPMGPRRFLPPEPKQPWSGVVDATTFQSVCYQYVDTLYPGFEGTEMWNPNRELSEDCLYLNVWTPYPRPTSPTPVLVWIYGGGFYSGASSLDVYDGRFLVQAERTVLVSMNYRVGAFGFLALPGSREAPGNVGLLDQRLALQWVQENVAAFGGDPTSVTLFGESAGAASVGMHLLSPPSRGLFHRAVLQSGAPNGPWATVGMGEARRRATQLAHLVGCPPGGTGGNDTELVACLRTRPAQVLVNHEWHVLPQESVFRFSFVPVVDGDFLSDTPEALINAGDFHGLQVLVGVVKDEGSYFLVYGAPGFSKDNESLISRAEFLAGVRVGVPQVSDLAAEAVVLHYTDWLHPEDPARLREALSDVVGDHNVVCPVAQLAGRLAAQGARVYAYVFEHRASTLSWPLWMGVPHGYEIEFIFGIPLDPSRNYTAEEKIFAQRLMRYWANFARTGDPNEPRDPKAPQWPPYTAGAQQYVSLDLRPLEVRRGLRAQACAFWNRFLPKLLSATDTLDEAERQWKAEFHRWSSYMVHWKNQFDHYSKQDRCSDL
# measurement_protocol: Acetylcholinesterase (AChE) small molecule antagonists: fluorescence cell-based qHTS assay (AID 1347398); also: nearly all actives have a fitted effect of over 50% in size
# measurement_parameters: SH-SY5Y cells; AChE activity; series mostly up to 115 µM
Records with an inconclusive call do not appear. Active and inactive are the calls of the source. Calls come from the whole dose curve.
Log the outcome using a class from True for active, False for inactive

// below: answered compounds
compound	subject_of_test	answer_label
CC1(C)CCC[C@]2(C)[C@H]3CC(=O)O[C@]3(C)CC[C@@H]12	Acetylcholinesterase (Homo sapiens) (UniProt P22303)	False
O=C(/C=C/c1ccc(O)c(O)c1)O[C@@H](C(=O)O)[C@@H](OC(=O)/C=C/c1ccc(O)c(O)c1)C(=O)O	Acetylcholinesterase (Homo sapiens) (UniProt P22303)	False
CC(C)CCO	Acetylcholinesterase (Homo sapiens) (UniProt P22303)	False
c1ccc2[nH]ccc2c1	Acetylcholinesterase (Homo sapiens) (UniProt P22303)	False
CCCCOCCOCCSC#N	Acetylcholinesterase (Homo sapiens) (UniProt P22303)	False
CC1=C(/C=C/C(C)=C/C=C/C(C)=C/C(=O)Nc2ccc(O)cc2)C(C)(C)CCC1	Acetylcholinesterase (Homo sapiens) (UniProt P22303)	True
N#CCC(=O)NN	Acetylcholinesterase (Homo sapiens) (UniProt P22303)	False
Nc1ccc2c(O)cc(S(=O)(=O)O)cc2c1	Acetylcholinesterase (Homo sapiens) (UniProt P22303)	False
CCC(COC(=O)CCS)(COC(=O)CCS)COC(=O)CCS	Acetylcholinesterase (Homo sapiens) (UniProt P22303)	False
CCNc1nc(NC(C)(C)C)nc(OC)n1	Acetylcholinesterase (Homo sapiens) (UniProt P22303)	False

Q. Assay outcome for "CC(=O)Nc1ccc2c(c1)Cc1cc(NC(C)=O)ccc1-2" : what was it?
A. False

Q. Assay outcome for "O=CCc1ccccc1" : what was it?
A. False

Q. Assay outcome for "COC(=O)c1ccccc1C(=O)O" : what was it?
A. False

Q. Assay outcome for "CC(C)=CC(=O)O" : what was it?
A. False

Q. Assay outcome for "O=C(O)CC(=O)C(=O)O" : what was it?
A. False

Q. Assay outcome for "CCc1ccccc1CC" : what was it?
A. False

Q. Assay outcome for "NC(=O)c1cccc([N+](=O)[O-])c1" : what was it?
A. False

---

# measurement_protocol: qHTS assay to identify small molecule antagonists of the glucocorticoid receptor (GR) signaling pathway - cell viability counter screen (AID 720693); also: nearly all actives have a fitted effect of over 55% in size
# measurement_parameters: GR-bla HeLa viability, CellTiter-Glo luminescence, 18 h, with 5 nM dexamethasone present; series mostly up to 58.5 µM
Results filed as inconclusive are left out. Activity calls are given as the source filed them. Calls follow the shape of the dose curve; as a rule, active = well fitted cell-killing curve with a large enough effect in the repeat runs; inconclusive = weak or mixed curves, or effect the other way; inactive = no such curve, though single readings can be large or run the other way.
Log the outcome using a class from T (active), F (inactive)

// below: answered compounds
compound	answer_label
CCC1(CC)C(=O)NC(=O)N(C)C1=O	F
c1ccc2c(c1)Sc1ccccc1N2CC1CN2CCC1CC2 (stereo not given)	F

Q. Assay outcome for "COC(=O)[C@@H]1[C@H]2CC[C@@H](C[C@H]1OC(=O)c1ccccc1)N2C" : what was it?
A. F

---

# subject_of_test: Cytochrome P450 2C19 (Homo sapiens) (UniProt P33261)
# Sequence (P33261 whole entry, looked up): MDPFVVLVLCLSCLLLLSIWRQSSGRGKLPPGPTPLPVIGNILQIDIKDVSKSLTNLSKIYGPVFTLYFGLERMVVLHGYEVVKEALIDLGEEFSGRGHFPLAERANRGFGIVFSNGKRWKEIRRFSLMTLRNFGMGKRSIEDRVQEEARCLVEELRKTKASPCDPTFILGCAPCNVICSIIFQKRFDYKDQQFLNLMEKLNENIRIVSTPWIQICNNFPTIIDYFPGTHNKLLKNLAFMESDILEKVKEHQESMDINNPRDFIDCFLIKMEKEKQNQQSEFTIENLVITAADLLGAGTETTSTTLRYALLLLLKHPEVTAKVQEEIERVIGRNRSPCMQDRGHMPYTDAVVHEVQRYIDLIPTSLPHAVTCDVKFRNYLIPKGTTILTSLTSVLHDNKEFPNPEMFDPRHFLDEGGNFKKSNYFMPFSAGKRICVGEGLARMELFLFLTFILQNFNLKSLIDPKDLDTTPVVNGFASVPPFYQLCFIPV
# measurement_protocol: Cytochrome P450 Family 2 Subfamily C Member 19 (CYP2C19) small molecule antagonists: luciferase reporter qHTS assay (AID 1671197); also: potency is read from the fitted curve at half-maximal effect; nearly all actives have a fitted effect of over 65% in size
# measurement_parameters: P450-Glo CYP2C19 enzyme, luciferin luminescence, 1 h; series mostly up to 115 µM
Results filed as inconclusive are left out. The source made the active and inactive calls. Calls follow the shape of the dose curve; as a rule, active = well fitted inhibition curve with a large enough effect in the repeat runs; inconclusive = weak or mixed curves; inactive = no such curve, though single readings can be large or run the other way.
Reported Potency values for a set of compounds

A selection of reference data follows.
molecule	subject_of_test	Potency
CNC(=O)Oc1cc(C)c(SC)c(C)c1	Cytochrome P450 2C19 (Homo sapiens) (UniProt P33261)	56.4 µM (active)
Cc1cc(C)c(C(=O)P(=O)(c2ccccc2)c2ccccc2)c(C)c1	Cytochrome P450 2C19 (Homo sapiens) (UniProt P33261)	6.33 µM (active)
CC(c1ccccc1)(c1ccc(O)cc1)c1ccc(O)cc1	Cytochrome P450 2C19 (Homo sapiens) (UniProt P33261)	8.94 µM (active)

Q. Bench note: what Potency did "CO/C=C(/C(=O)OC)c1ccccc1Oc1cc(Oc2ccccc2C#N)ncn1" show?
A. 2.39 µM (active)

Q. Bench note: what Potency did "Cc1cc(C(C)(C)c2ccc(O)c(C)c2)ccc1O" show?
A. 2.14 µM (active)

Q. Bench note: what Potency did "O=S(=O)(C(Cl)(Cl)Cl)C(Cl)(Cl)Cl" show?
A. 25.2 µM (active)

---

# measurement_protocol: qHTS assay to identify small molecule antagonists of the estrogen receptor alpha (ER-alpha) signaling pathway - cell viability counter screen (AID 743074);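 also: HEK293 cells carrying ER-alpha-UAS-bla reporter stimulated with 17beta-estradiol; nearly all actives have a fitted effect of over 45% in size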
# measurement_parameters: ERalpha-bla HEK293 viability, CellTiter-Glo luminescence, 18 h; series mostly up to 69.4 µM
Records with an inconclusive call do not appear. Active and inactive are the calls of the source. Calls follow the shape of the full dose curve.
Log the outcome using a class from YES (active), NO (inactive)

// below: answered molecules
molecule	answer_label
CC(C)NC(C)Cc1ccc(I)cc1 (stereo not given)	NO
C[N+]1(C)[C@@H]2CC[C@H]1CC(OC(=O)c1c[nH]c3ccccc13)C2 (stereo not given in full)	NO
CN[C@@H]1C[C@@H](c2ccc(Cl)c(Cl)c2)c2ccccc21	NO
COC1=CC=C2[C@H]3Cc4ccc(OC)c5c4[C@@]2(CCN3C)[C@H]1O5	NO

Q. Assay outcome for NC1=NC(=O)N2CC12 (stereo not given) : what was it?
A. NO

Q. Assay outcome for "O=C(O)/C=C\C(=O)O" : what was it?
A. NO

Q. Assay outcome for "C[C@]12CC[C@H](O)C[C@H]1CC[C@@H]1[C@@H]2CC[C@]2(C)[C@@H](c3ccc(=O)oc3)C[C@H]3O[C@]132" : what was it?
A. YES

Q. Assay outcome for "Cc1nnc2n1-c1sc(Br)cc1C(c1ccccc1Cl)=NC2" : what was it?
A. NO

Q. Assay outcome for "NCC[C@H](O)C(=O)N[C@@H]1C[C@H](N)[C@@H](O[C@H]2O[C@H](CN)[C@@H](O)[C@H](O)[C@H]2N)[C@H](O[C@@H]2O[C@H](CO)[C@@H](O)[C@H]2O)[C@H]1O" : what was it?
A. NO

Q. Assay outcome for "Cc1cc(C(C)(C)c2ccc(O)c(C)c2)ccc1O" : what was it?
A. NO

---

# measurement_protocol: A CellTox Green Cytotoxicity Assay to monitor cytotoxicity in HEK293 cells - 32 hour (AID 1224881); also: nearly all actives have a fitted effect of over 40% in size
# measurement_parameters: CellTox Green fluorescence; series mostly up to 76.8 µM
# Description: National Center for Advancing Translational Sciences [NCATS] NIH Chemical Genomics Center [NCGC] U.S. Environmental Protection Agency [EPA] National Institutes of Environmental Health Sciences [NIEHS] National Toxicology Program [NTP] Cell-based models are critical for drug discovery. […] Viable cells produce no appreciable increases in fluorescence. Therefore, the fluorescence signal produced by the binding interaction with dead cell DNA is proportional to cytotoxicity. […]
Results filed as inconclusive are left out. Calls of active or inactive are those of the source. Calls come from the whole dose curve; as a rule, active = well fitted activation curve with a large enough effect in the repeat runs; inconclusive = weak or mixed curves; inactive = flat fitted curve, though single readings scatter.
Log the outcome using a class from 1 (active), 0 (inactive)

// below: answered compounds
molecule	answer_label
O=C1C(I)=CC(=C(c2cc(I)c(O)c(I)c2)c2ccccc2C(=O)O)C=C1I	0
N#Cc1cc([N+](=O)[O-])ccc1N	0

Q. Assay outcome for "CCN(CC)C(=O)Cl" : what was it?
A. 0

Q. Assay outcome for "Nc1ccc([N+](=O)[O-])cc1" : what was it?
A. 1

Q. Assay outcome for "Clc1ccccc1-c1ccccc1Cl" : what was it?
A. 1

Q. Assay outcome for "O=S(=O)(C(Cl)(Cl)Cl)C(Cl)(Cl)Cl" : what was it?
A. 1

Q. Assay outcome for "O=C(c1ccccc1)C(Cl)Cl" : what was it?
A. 1
